meta.source: the supplement of paper PMC9170038

system: MS2 coat protein; test: apparent KD of MS2 coat protein; higher = weaker reporter binding; settings: Eterna round: R107; input ligand: arginine 13.2 mM
assayEndpoint: apparent KD of MS2 coat protein (µM)
I only need the number, in µM, no unit after it.

Inquiry: // fetch MS2 coat protein apparent KD of MS2 coat protein for AGUCUUAAAGGAAGGAGCGCAAUCAUAACAUGAGGAUCACCCAUGUCGAGGUGAGGGUCAUUGCAGGUAGGUCGCCUUACUAAGA [Same State - Arginine B (Freestyle 7)]
Reply text: 0.128

Inquiry: Query for MS2 coat protein: what apparent KD of MS2 coat protein does the record show for AUAAUGAGUGGUGGAUAGGUGAUCCUCUUACGAGGACCGGUACGGCCGCCACUCGAUAACAUGAGGAUCACCCAUGUAAUAAUAA [|T'-M'-Trp-Ms2|_Design19] ?
Reply text: 0.021

Inquiry: Entry UCGCCCGGGUCGGCCGCCACUGAGGUAAUAUGACAUGAGGAUCACCCAUGUUGUCAUGUGGAACAUAGGACCGGGACCCGGGCGA [Exclusion - Tryptophan B Attempt #1 (HarryS)] , system MS2 coat protein: what apparent KD of MS2 coat protein was measured?
Reply text: 0.00915

Inquiry: Please state recorded apparent KD of MS2 coat protein (tested on MS2 coat protein) of AGUACAUGAGGAUCACCCAUGUACCAUGAUACCAGACAUGAAAAUGUCCCUUGGCAGCGUGGGUGAGGCAUCCGAAAGGAUGCCC [#05 SameState-TheophyllineA]
Reply text: 0.0511

Inquiry: Provide value of apparent KD of MS2 coat protein for this record tested with MS2 coat protein: GGGUACAUCGCGGCCGCCACUCGUGUAAAUACAUGAGGAUCACCCAUGUCGAUGGAGACAUCGGAGAGGACCGGGUGAUGUACCG
Reply text: 0.11

Inquiry: Lab note: need apparent KD of MS2 coat protein for UAAUGCAGGUCGGCCGCCACUACACACAUGAGGAUCACCCAUGUAGUUACUGGGUGAAGUGGCAGUAGGACCGGGACCUGCAUAC [Brourdmod04] on MS2 coat protein, anyone have it?
Reply text: 0.165

---

tested on: MS2 coat protein; test: apparent KD of MS2 coat protein; designed switch direction (-1 OFF switch, 1 ON switch): -1; higher = weaker reporter binding; details: input ligand: microRNA oligo, concentration not stated
assayEndpoint: apparent KD of MS2 coat protein (nM)
Please give a number only; it is taken to be in nM.

Inquiry: Query: apparent KD of MS2 coat protein; subject: GGCUCGCCUCACAUGAGGAUCACCCAUGUACAAAACAAGAGGCAGGAUAUGGGCCGCGCAGCGGGCCAGAAGGGCCGCAUGGGU [Edsodidige] (Eterna round: R96, puzzle: Exclusion NG 3)
Reply text: 67.7

Inquiry: Any idea what apparent KD of MS2 coat protein was measured for UAGCAUUGCCUUUGGUAGUGCUUUACAUGAGGAUCACCCAUGUAGGAUAUGGUAGGCUUUGCUUACCAGAAGGACAUGAUAAUU [JL ENG3 1.04] (Eterna round: R96, puzzle: Exclusion NG 3) ?
Reply text: 52.3

Inquiry: Endpoint output: apparent KD of MS2 coat protein of AGUAUAAUGUACGUGCACCACUUACAUGAGGAUCACCCAUGUUAGGAUAUCGAGCCUUUCUGGCUCGAGAAGGGACUCUUCGGG [Eternabot solution 18] (Eterna round: R96, puzzle: Exclusion NG 3) . Value?
Reply text: 22.9

Inquiry: Any idea what its apparent KD of MS2 coat protein is? The sequence is UACAUGAGGAUCACCCAUGUACCUUAUGUAAGAGUGGGAAGUAAGGAUAUAUAUGAAGGAAUGAAAUAGAAGGUGCAUAGAGAG [Default title] (Eterna round: R96, puzzle: Exclusion NG 3)
Reply text: 97.4

Inquiry: // apparent KD of MS2 coat protein lookup, key: GUCUACAUGACAUGAGGAUCACCCAUGUGUUAUAUUUUUACUAAGGAUAUAUUUUUAAUGUUGAGAUAGAAGGUAGUUUCGGUC [JR_ExcNG3_Sub093] (Eterna round: R96, puzzle: Exclusion NG 3)
Reply text: 32.8

Inquiry: Please report the recorded apparent KD of MS2 coat protein for AAGUCCUUGUGGACACAUGAGGAUCACCCAUGUGCGGUCAGCGAGGAUAUCGGUCUAUAAUGUGACGAGAAGGCGCGGACCGAU [Ex NG3 #61] (Eterna round: R96, puzzle: Exclusion NG 3) .
Reply text: 15.3

Inquiry: Please report the recorded apparent KD of MS2 coat protein for AUAAAACGAGGAUAUGCUGGGCUUCUGUGAUGCAUAUGCUCACAUGAGGAUCACCCAUGUAGAAGGUGUAAAAU [Laaceve] (Eterna round: R96, puzzle: Exclusion 2) .
Reply text: 221

Inquiry: Please look up its apparent KD of MS2 coat protein: UACAUGAGGAUCACCCAUGUUUUGUCGUGUAUGGUAUUUAUCUAGGAUAUCAAUGUAUUUAUUCAUGAGAAGGAGAAUAUUAAU [JMF's solution 48] (Eterna round: R96, puzzle: Exclusion NG 3)
Reply text: 28.3

Inquiry: Name the reported apparent KD of MS2 coat protein value associated with the sequence ACAUGAGGAUCACCCAUGUCCGGCUGGUCUGUCUCGGCUGUCGAGGAUAUAGCUCGGUAUCCGCGCUAGAAGGCGGGAGCCGGC [Aenatbe mod 90] (Eterna round: R96, puzzle: Exclusion NG 3)
Reply text: 43.5

---

system: MS2 coat protein; assay: apparent KD of MS2 coat protein, switch OFF state (with FMN for OFF switches, without FMN for ON switches); designed switch direction (-1 OFF switch, 1 ON switch): -1; higher = weaker reporter binding; details: FMN input: 0 or 200 uM; Eterna round: R93 (includes R88 designs)
assayEndpoint: apparent KD of MS2 coat protein (nM)
Numbers only; they are read as nM.

Inquiry: Reported apparent KD of MS2 coat protein, sequence AAAAAGCUAGGAUAUACGAAAAAAAAGGGUAAAAAAUAAAAACAUGAGGAUCACCCAUGUAGAAGGAGCAAAAA [Mat - Exclusion 2 - Tesla mod - D36] : ____
Reply text: 77.9

Inquiry: If you can, please state the reported apparent KD of MS2 coat protein value of AAGAAUGUAGGAUAUACAAGGAAGAAAGAAAAGAAAAGAAAACAUGAGGAUCACCCAUGUAGAAGGACAUAGAA [EteRNA is fun!] .
Reply text: 18.2

Inquiry: Give the measured apparent KD of MS2 coat protein of AGGGAGUAAGGAUAUGAGAAAGAAAAAGAAGGAAAAAAAGAUCAGAAGGUACAUGAGGAUCACCCAUGUAAAAA [milkweed 9] .
Reply text: 26

Inquiry: What does the record list as apparent KD of MS2 coat protein for AACAGUACAGGAUAUACAUGAGGAUCACCCAUGUGAAAAUUAAGUGGGAGACCACAAAGUAGAAGGGUACUGAA [Mat - Exclusion 3 - Eli mod - D60] ?
Reply text: 62.3

Inquiry: Report apparent KD of MS2 coat protein for AAAAAACAUGAGGAUCACCCAUGUGAGGAUAUGCAAAAAUAAAAUAAAAUAAUAAAAAGCAGAAGGCACAAAAA [Amethyst 76] please.
Reply text: 26.4

Inquiry: # apparent KD of MS2 coat protein lookup, item GGAAAACAUGAGGAUCACCCAUGUAAGGAUAUGCAAAAAAAAAAAAGGAUAUAGAAGGGCAGAAGGUACAAAGG [salish99-ex1-30]
Reply text: 36.1

Inquiry: // lookup apparent KD of MS2 coat protein for AACAUGUGAGGAUAUAUAAGAAAAGAAAAGAAAGAAAAGAAAUAGAAGGCACAUGAGGAUCACCCAUGUAAGAA [EteRNA is fun!]
Reply text: 26.2

Inquiry: I'd like to know its apparent KD of MS2 coat protein. The sequence in question is AAAAUGUCAGGAUAUGCGAAGGCAUCUGACAGAUGAGGAUUGCAGAAGGGACAUGAGGAUCACCCAUGUAAAAA
Reply text: 41.7

Inquiry: Name the reported apparent KD of MS2 coat protein value associated with the sequence AGCUAGUCAGGAUAUACAAAAUGAUUGCGAAAGCAAUCAACACAUGAGGAUCACCCAUGUAGAAGGGACUAGCA [Mat - Exclusion 2 - JL-Eli mod - D43]
Reply text: 21.1

Inquiry: Field request: apparent KD of MS2 coat protein | item: GGGUCACAUGAGGAUCACCCAUGUAAGGAUAUGCUAGGGAUGGAAACCAUUACGCAACGCAGAAGGUACUAAAG [Janelle Amethyst 18 Mod 11 - Jieux - Exclusion 1]
Reply text: 59

Inquiry: State the recorded apparent KD of MS2 coat protein for this entry: AAAGGGUCAGGAUAUCGAUUAAUAAUAAAAUAAAUGAAGAUCGAGAAGGGACAUGAGGAUCACCCAUGUAUAAC [May 79]
Reply text: 64.6

Inquiry: Data request, read-out apparent KD of MS2 coat protein, for AAAAAGGUAGGAUAUACGAAAAAAAAGGGUAAAAAAUAAAAACAUGAGGAUCACCCAUGUAGAAGGACCAAAAA [Mat - Exclusion 2 - Tesla mod - D41]
Reply text: 36.7

Inquiry: apparent KD of MS2 coat protein for AAAGGGCGAGGAUAUACAUGAGGAUCACCCAUGUAAAAAACAUAAUAAAAGAAUUUAUGUAGAAGGCGCCCAAA [Ruby 60] ?
Reply text: 14.4
